Test: total protein half-life in vivo (active degradation + dilution); higher = more stable protein
Conditions: wild type E. coli NCM3722; growth: C-lim chemostat; doubling time 6 h
As shown below, each of these sequences has a reported total protein half-life in vivo value.
Value Type: total protein half-life in vivo

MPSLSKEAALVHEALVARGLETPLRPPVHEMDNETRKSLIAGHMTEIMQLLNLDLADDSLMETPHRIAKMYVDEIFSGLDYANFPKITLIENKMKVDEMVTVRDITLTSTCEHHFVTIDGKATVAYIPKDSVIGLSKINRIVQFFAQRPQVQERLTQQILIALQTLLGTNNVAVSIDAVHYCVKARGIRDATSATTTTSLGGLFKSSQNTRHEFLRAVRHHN [P0A6T5] = 3.46 h
MILHPSLASANPLHYGRELTALDNLDFGSLHLDIEDSSFINNITFGMKTVQAVARQTPHPLSFHFMLARPQRWFNALAEIRPAWIFVHAETLDYPSETLTEIRHTGARAGLVFNPATPIDAWRYLASELDGVMVMTSEPDGQGQRFIPSMCEKIQKVRTAFPQTECWADGGITLAAAQQLAAAGAQHMVIGRALFSSSDYRATLAQFATL = 1.44 h
MDFSLTEEQELLLASIRELITTNFPEEYFRTCDQNGTYPREFMRALADNGISMLGVPEEFGGIPADYVTQMLALMEVSKCGAPAFLITNGQCIHSMRRFGSAEQLRKTAESTLETGDPAYALALTEPGAGSDNNSATTTYTRKNGKVYINGQKTFITGAKEYPYMLVLARDPQPKDPKKAFTLWWVDSSKPGIKINPLHKIGWHMLSTCEVYLDNVEVEESDMVGEEGMGFLNVMYNFEMERLINAARSTGFAECAFEDAARYANQRIAFGKPIGHNQMIQEKLALMAIKIDNMRNMVLKVAWQADQHQSLRTSAALAKLYCARTAMEVIDDAIQIMGGLGYTDEARVSRFWRDVRCERIGGGTDEIMIYVAGRQILKDYQNK [P0A9U8] = > 8 h

* * *

# total protein half-life in vivo per record follows
Test: total protein half-life in vivo (active degradation + dilution); higher = more stable protein
Conditions: wild type E. coli NCM3722; growth: P-lim chemostat; doubling time 6 h
Value Type: total protein half-life in vivo

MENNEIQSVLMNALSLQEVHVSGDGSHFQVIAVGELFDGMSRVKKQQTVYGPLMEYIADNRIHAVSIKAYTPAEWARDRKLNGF [P0A9W6] = 4.79 h
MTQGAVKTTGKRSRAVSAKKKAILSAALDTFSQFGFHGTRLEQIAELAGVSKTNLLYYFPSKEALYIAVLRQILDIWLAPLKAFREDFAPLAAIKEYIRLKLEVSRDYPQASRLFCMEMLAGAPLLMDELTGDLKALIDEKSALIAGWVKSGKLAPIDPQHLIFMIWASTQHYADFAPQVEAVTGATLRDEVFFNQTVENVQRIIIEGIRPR [P0ACU2] = 4.61 h
MQFNIPTLLTLFRVILIPFFVLVFYLPVTWSPFAAALIFCVAAVTDWFDGFLARRWNQSTRFGAFLDPVADKVLVAIAMVLVTEHYHSWWVTLPAATMIAREIIISALREWMAELGKRSSVAVSWIGKVKTTAQMVALAWLLWRPNIWVEYAGIALFFVAAVLTLWSMLQYLSAARADLLDQ [P0ABF8] = 6.75 h
MLVWLAEHLVKYYSGFNVFSYLTFRAIVSLLTALFISLWMGPRMIAHLQKLSFGQVVRNDGPESHFSKRGTPTMGGIMILTAIVISVLLWAYPSNPYVWCVLVVLVGYGVIGFVDDYRKVVRKDTKGLIARWKYFWMSVIALGVAFALYLAGKDTPATQLVVPFFKDVMPQLGLFYILLAYFVIVGTGNAVNLTDGLDGLAIMPTVFVAGGFALVAWATGNMNFASYLHIPYLRHAGELVIVCTAIVGAGLGFLWFNTYPAQVFMGDVGSLALGGALGIIAVLLRQEFLLVIMGGVFVVETLSVILQVGSFKLRGQRIFRMAPIHHHYELKGWPEPRVIVRFWIISLMLVLIGLATLKVR [P0A6W3] = 6.06 h
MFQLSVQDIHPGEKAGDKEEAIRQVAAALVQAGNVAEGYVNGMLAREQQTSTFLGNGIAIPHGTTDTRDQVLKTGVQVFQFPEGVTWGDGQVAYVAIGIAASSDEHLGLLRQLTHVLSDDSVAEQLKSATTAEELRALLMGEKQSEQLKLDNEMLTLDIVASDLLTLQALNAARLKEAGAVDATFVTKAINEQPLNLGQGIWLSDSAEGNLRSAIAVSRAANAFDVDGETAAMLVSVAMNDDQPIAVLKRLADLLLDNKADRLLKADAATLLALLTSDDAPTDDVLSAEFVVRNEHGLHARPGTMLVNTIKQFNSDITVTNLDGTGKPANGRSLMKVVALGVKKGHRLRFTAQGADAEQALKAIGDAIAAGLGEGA = 5.71 h
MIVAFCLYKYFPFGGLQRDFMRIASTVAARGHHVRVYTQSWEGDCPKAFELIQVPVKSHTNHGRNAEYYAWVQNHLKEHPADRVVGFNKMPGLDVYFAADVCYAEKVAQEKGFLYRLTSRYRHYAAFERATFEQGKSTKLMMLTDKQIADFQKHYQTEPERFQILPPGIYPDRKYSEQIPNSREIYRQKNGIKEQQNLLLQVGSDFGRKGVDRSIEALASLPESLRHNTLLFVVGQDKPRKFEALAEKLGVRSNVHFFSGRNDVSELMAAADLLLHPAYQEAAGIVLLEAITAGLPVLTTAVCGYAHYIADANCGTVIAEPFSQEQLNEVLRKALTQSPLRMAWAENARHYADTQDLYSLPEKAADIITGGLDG = 6.25 h
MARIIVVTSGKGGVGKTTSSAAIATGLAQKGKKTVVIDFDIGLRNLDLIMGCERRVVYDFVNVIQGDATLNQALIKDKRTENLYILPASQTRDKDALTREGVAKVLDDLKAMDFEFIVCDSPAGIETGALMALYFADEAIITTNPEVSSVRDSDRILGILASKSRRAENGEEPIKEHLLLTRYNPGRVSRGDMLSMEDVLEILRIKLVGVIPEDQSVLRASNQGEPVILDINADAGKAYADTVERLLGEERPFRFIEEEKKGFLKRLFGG [P0AEZ3] = 4.93 h
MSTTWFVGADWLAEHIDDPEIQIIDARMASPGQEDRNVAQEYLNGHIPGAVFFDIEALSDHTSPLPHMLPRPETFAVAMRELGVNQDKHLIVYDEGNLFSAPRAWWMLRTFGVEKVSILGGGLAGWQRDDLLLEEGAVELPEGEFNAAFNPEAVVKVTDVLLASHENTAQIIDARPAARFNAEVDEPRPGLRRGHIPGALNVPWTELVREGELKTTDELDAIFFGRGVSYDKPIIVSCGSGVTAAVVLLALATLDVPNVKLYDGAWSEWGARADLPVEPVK = 5.58 h
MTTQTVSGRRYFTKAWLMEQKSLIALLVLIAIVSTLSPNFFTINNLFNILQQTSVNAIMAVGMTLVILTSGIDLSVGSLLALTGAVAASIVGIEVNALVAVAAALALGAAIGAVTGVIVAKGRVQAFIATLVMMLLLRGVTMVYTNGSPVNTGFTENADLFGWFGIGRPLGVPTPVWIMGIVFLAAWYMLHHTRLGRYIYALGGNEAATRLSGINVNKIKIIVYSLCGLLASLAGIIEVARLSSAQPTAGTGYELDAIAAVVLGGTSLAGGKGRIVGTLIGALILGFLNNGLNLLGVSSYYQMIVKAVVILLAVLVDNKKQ [P0AGI1] = 5.48 h
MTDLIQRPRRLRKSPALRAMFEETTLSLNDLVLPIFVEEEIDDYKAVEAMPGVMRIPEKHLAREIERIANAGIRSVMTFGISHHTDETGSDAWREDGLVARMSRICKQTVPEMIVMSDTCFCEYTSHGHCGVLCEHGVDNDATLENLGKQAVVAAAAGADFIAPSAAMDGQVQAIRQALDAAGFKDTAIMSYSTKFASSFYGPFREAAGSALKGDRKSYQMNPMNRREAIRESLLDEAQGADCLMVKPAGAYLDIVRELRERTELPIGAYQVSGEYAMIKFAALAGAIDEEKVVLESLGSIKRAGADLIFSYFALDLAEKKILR [P0ACB2] = 5.96 h
